meta.source: ChEMBL document CHEMBL5058577

test system: U2OS; assay: Multiplex assay against U2OS; format: toxicity, cell-based; conditions: human, 12 h, 10 µM, compound concentration 10 uM, replicate 1
property: Total Cell Count

Specify the recorded Total Cell Count for CC(=O)NCCc1c(Cc2ccccc2)[nH]c2ccccc12 [LUZINDOLE] , system: U2OS. 291

Specify the recorded Total Cell Count for "CN(C)CCCc1cc(C(=O)Nc2ccc(-c3ccncc3)cc2)ccc1O.Cl.Cl" , system: U2OS. 237

Specify the recorded Total Cell Count for "Cc1ccc(-c2ccc(F)cc2COc2ccc(CCC(=O)O)cc2)cc1" , system: U2OS. 238

Specify the recorded Total Cell Count for "CCOc1c2c(c(OCC)c3ncccc13)CN(c1ccc(CS(=O)(=O)NC(=O)Cc3ccccc3OC)cc1C)C2=O" , system: U2OS. 248

Specify the recorded Total Cell Count for CC(C)(C)c1ccc(S(=O)(=O)Nc2ccc(Cl)cc2C(=O)c2cc[n+]([O-])cc2)cc1 [VERCIRNON] , system: U2OS. 266

Specify the recorded Total Cell Count for O=S(=O)(c1ccccc1)c1cnc2c(N3CCNCC3)cccc2c1 [INTEPIRDINE] , system: U2OS. 204

Specify the recorded Total Cell Count for "Oc1c(CN2CCN(c3ccccn3)CC2)cc(Cl)c2cccnc12" , system: U2OS. 229

Specify the recorded Total Cell Count for "CN1CCN(c2nc3cc(C(F)(F)F)ccc3n3cccc23)CC1.O=C(O)/C=C\C(=O)O.O=C(O)/C=C\C(=O)O" , system: U2OS. 218

Specify the recorded Total Cell Count for C[C@@H]1C[C@H]2[C@@H]3CCC4=CC(=O)C=C[C@]4(C)[C@@]3(F)[C@@H](O)C[C@]2(C)[C@@]1(O)C(=O)CO [DEXAMETHASONE] , system: U2OS. 319

Specify the recorded Total Cell Count for CC1(COc2ccc3c(c2)ncn3-c2ccc3cccc(N4CCC(N)CC4)c3n2)COC1 [CRENOLANIB] , system: U2OS. 274

Specify the recorded Total Cell Count for "CSCC[C@H](NC=O)C(=O)N[C@@H](CC(C)C)C(=O)N[C@@H](Cc1ccccc1)C(=O)O" , system: U2OS. 202

Specify the recorded Total Cell Count for "CCCn1c(=O)c2[nH]c(C3CCCC3)nc2n(CCC)c1=O" , system: U2OS. 206

Specify the recorded Total Cell Count for O=C(O)c1cc2ccccc2c(Cc2c(O)c(C(=O)O)cc3ccccc23)c1O [PAMOIC ACID] , system: U2OS. 259

Specify the recorded Total Cell Count for CNC[C@H](O)c1ccc(O)c(O)c1 [EPINEPHRINE] , system: U2OS. 199

Specify the recorded Total Cell Count for COc1ccc2c(c1)C(C(=O)N(Cc1ccc(N(C)C)cc1)c1ccc(C(C)C)cc1)CCC2.Cl (stereo unspecified) , system: U2OS. 224

Specify the recorded Total Cell Count for N[C@@]1(C(=O)O)CO[C@H]2[C@H](C(=O)O)[C@H]21 [LY-379268] , system: U2OS. 264

Specify the recorded Total Cell Count for O=C(NCC(=O)N1CC[C@H](N[C@H]2CC[C@@](O)(c3ccc(-c4ncccn4)cn3)CC2)C1)c1cccc(C(F)(F)F)c1 [PF-4136309] , system: U2OS. 242

Specify the recorded Total Cell Count for "O=C(NCCO)c1cccc(-c2cc(Nc3ccc(OC(F)(F)F)cc3)ncn2)c1" , system: U2OS. 274

Specify the recorded Total Cell Count for "COc1c(C)cc(NC(=O)c2nn(Cc3ccc(F)cc3)c3c2CN(C(=O)c2ccc[nH]2)C[C@]3(C)C(N)=O)cc1C" , system: U2OS. 223

Specify the recorded Total Cell Count for c1cc(OCCCN2CCCCC2)ccc1CN1CCCCC1 [JNJ-5207852] , system: U2OS. 228

Specify the recorded Total Cell Count for CCNC1(C(N)=O)CCN(c2ncnc3c2nc(-c2ccccc2Cl)n3-c2ccc(Cl)cc2)CC1 [OTENABANT] , system: U2OS. 211

Specify the recorded Total Cell Count for Cc1ccccc1C(=O)Nc1ccc(C(=O)N2CCCC(N(C)C)c3ccccc32)cc1.Cl (stereo unspecified) , system: U2OS. 213

Specify the recorded Total Cell Count for O=C(O)Cc1ccccc1Nc1c(Cl)cccc1Cl [DICLOFENAC] , system: U2OS. 258

Specify the recorded Total Cell Count for CSc1ccccc1N1CCN(CCCCCC(=O)NC2CCCc3ccccc32)CC1.Cl (stereo unspecified) , system: U2OS. 221

Specify the recorded Total Cell Count for C[C@H](NC(=O)c1c(C(F)F)nn(C)c1Oc1cccc(C(F)(F)F)c1)c1ccc(C(=O)O)cc1 [PALUPIPRANT] , system: U2OS. 293

Specify the recorded Total Cell Count for N#Cc1c(N)nc(SCc2csc(-c3ccc(Cl)cc3)n2)c(C#N)c1-c1ccc(OCCO)cc1 [CAPADENOSON] , system: U2OS. 255

Specify the recorded Total Cell Count for Cc1ccc(C(C)(O)c2nc3ccccc3s2)c(C)c1 (stereo unspecified) , system: U2OS. 234

Specify the recorded Total Cell Count for "CC[C@H]1OC(=O)[C@H](C)[C@@H](O[C@H]2C[C@@](C)(OC)[C@@H](O)[C@H](C)O2)[C@H](C)[C@@H](O[C@@H]2O[C@H](C)C[C@H](N(C)C)[C@H]2O)[C@@]2(C)CC(C)=C(O2)[C@H](C)[C@@H](O)[C@]1(C)O" , system: U2OS. 223

Specify the recorded Total Cell Count for "Cc1nc2ccc(Oc3ccc(F)cc3)cc2c(=O)n1C[C@H]1CCCN(C(C)C)C1.Cl" , system: U2OS. 268

Specify the recorded Total Cell Count for CCCN1CCC[C@@H]2Cc3n[nH]cc3C[C@H]21.Cl [QUINPIROLE HYDROCHLORIDE] , system: U2OS. 228

Specify the recorded Total Cell Count for "COc1cc(C(=O)N(CCCc2ccccc2)Cc2ccc(CC(=O)O)cc2)cc(OC)c1C" , system: U2OS. 262
